- Target entity: HIV-1 YU2 gp120 (HIV-1 YU2, UniProt P35961 32-498)
- Test summary: SPR
Some binders, each annotated with its measured k-2 (step 2, reverse).
// units = s⁻¹; emit number, no label

Binder	k-2 (step 2, reverse) (s⁻¹)
MVN_M83R (natural protein) MPNFSHTCSSINYDPDSTILSAECQARDGEWLPTELRLSDHIGNIDGELQFGDQNFQETCQDCHLEFGDGEQSVWLVCTCQTRDGEWKSTQILLDSQIDNNDSQLEIG	0.0029

Could you now look at the following binder, please?
For the binder MVN_G43E/G85Q (natural protein) MPNFSHTCSSINYDPDSTILSAECQARDGEWLPTELRLSDHIENIDGELQFGDQNFQETCQDCHLEFGDGEQSVWLVCTCQTMDQEWKSTQILLDSQIDNNDSQLEIG , give its reported k-2 (step 2, reverse). 0.0024
